- ASSAY_COMMENT: MB-102 pig plasma concentration after subcutaneous dosing
- Assay type: in vivo
- ASSAY_CONTEXT: Yorkshire, pig, plasma, subcutaneous, 3.2 mg/kg, pig 09802, SubQ, 3.2 mpk, 90 min; read-out: MB-102 Pig Plasma Conc.
QUANTITY_MEASURED: concentration at 90 min

## Input Provide one value: measured concentration at 90 min of Nc1nc(C(=O)N[C@H](CO)C(=O)O)c(N)nc1C(=O)N[C@H](CO)C(=O)O
## Output 5260 ng/mL

====

- ASSAY_COMMENT: MB-102 pig plasma concentration after intramuscular dosing
- Format: in vivo
- ASSAY_CONTEXT: Yorkshire, plasma, intramuscular, 3.2 mg/kg; pig 09801, IM, 3.2 mpk, 225 min; read-out: MB-102 Pig Plasma Conc.
QUANTITY_MEASURED: concentration at 225 min (ng/mL)
Express it in ng/mL; write the number only.

## Input Provide one value: measured concentration at 225 min of Nc1nc(C(=O)N[C@H](CO)C(=O)O)c(N)nc1C(=O)N[C@H](CO)C(=O)O
## Output 686

====

- ASSAY_COMMENT: MB-102 pig plasma concentration after subcutaneous dosing
- Assay type: in vivo
- ASSAY_CONTEXT: Yorkshire, pig, plasma, subcutaneous, 3.2 mg/kg, pig 52771, SubQ, 3.2 mpk, 285 min; read-out: MB-102 Pig Plasma Conc.
QUANTITY_MEASURED: concentration at 285 min (ng/mL)
Express it in ng/mL; write the number only.

## Input Provide one value: measured concentration at 285 min of Nc1nc(C(=O)N[C@H](CO)C(=O)O)c(N)nc1C(=O)N[C@H](CO)C(=O)O [MB-102]
## Output 1630

====

- ASSAY_COMMENT: MB-102 pig plasma concentration after subcutaneous dosing
- Format: in vivo
- ASSAY_CONTEXT: Yorkshire, pig, plasma, subcutaneous, 3.2 mg/kg, pig 53701, SubQ, 3.2 mpk, 270 min; read-out: MB-102 Pig Plasma Conc.
QUANTITY_MEASURED: concentration at 270 min (ng/mL)
Express it in ng/mL; write the number only.

## Input Provide one value: measured concentration at 270 min of Nc1nc(C(=O)N[C@H](CO)C(=O)O)c(N)nc1C(=O)N[C@H](CO)C(=O)O [MB-102]
## Output 1220

====

- ASSAY_COMMENT: MB-102 pig plasma concentration after subcutaneous dosing
- Assay type: in vivo
- ASSAY_CONTEXT: Yorkshire, pig, plasma, subcutaneous, 3.2 mg/kg, pig 53701, SubQ, 3.2 mpk, 15 min; read-out: MB-102 Pig Plasma Conc.
QUANTITY_MEASURED: concentration at 15 min
Your answer should be a number followed by the unit of measure.

## Input Provide one value: measured concentration at 15 min of Nc1nc(C(=O)N[C@H](CO)C(=O)O)c(N)nc1C(=O)N[C@H](CO)C(=O)O [MB-102]
## Output 8110 ng/mL

====

- ASSAY_COMMENT: MB-102 pig plasma concentration after IV dosing
- Assay type: in vivo
- ASSAY_CONTEXT: Yorkshire, plasma, 3.2 mg/kg; pig 48019, IV, 3.2 mpk, 105 min; read-out: MB-102 Pig Plasma Conc.
- Method: Juvenile Yorkshire pigs weighing approximately 25 kg were anesthetized, their body temperature stabilized, and an IV port surgically placed. […] After the skin was dry the sensors were attached with commercially available skin adhesive and background skin auto-fluorescence measurements were recorded. […] At this point glomerular elimination of MB-102 by the kidneys led to a decrease of fluorescence signal over time. […]
QUANTITY_MEASURED: concentration at 105 min (ng/mL)
Express it in ng/mL; write the number only.

## Input Provide one value: measured concentration at 105 min of Nc1nc(C(=O)N[C@H](CO)C(=O)O)c(N)nc1C(=O)N[C@H](CO)C(=O)O
## Output 4000
